- Test system: genotype 3a NS3 gene in transient replicon
- measurement_notes: 3a transient replicon (luciferase reporter)
- Type: cell-based, HCV
- details: Hepatitis C virus, Huh-7, read-out: 3a transient replicon (nM)
Items are presented alongside their recorded EC50.

| chemical_string | tgt | EC50 |
| --- | --- | --- |
| Cc1ccc(C(=O)N[C@H]2CCCCC/C=C\[C@@H]3C[C@@]3(C(=O)NS(=O)(=O)C3(C)CC3)NC(=O)[C@@H]3C[C@@H](Oc4nc5ccccc5c5ccc(OC(F)(F)F)cc45)CN3C2=O)o1 | genotype 3a NS3 gene in transient replicon | < 0.1 nM |
| CC1(S(=O)(=O)NC(=O)[C@@]23C[C@H]2/C=C\CCCCC[C@H](NC(=O)c2ccon2)C(=O)N2C[C@H](Oc4nc5cc(OC(F)(F)F)ccc5c5ccccc45)C[C@H]2C(=O)N3)CC1 | genotype 3a NS3 gene in transient replicon | 0.1 to 0.5 nM |
| Cn1ccc(C(=O)N[C@H]2CCCCC/C=C\[C@@H]3C[C@@]3(C(=O)NS(=O)(=O)C3(C)CC3)NC(=O)[C@@H]3C[C@@H](Oc4nc5cc(F)ccc5c5ccc(OC(F)(F)F)cc45)CN3C2=O)n1 | genotype 3a NS3 gene in transient replicon | 0.1 to 0.5 nM |
